Test system: SUDHL10
ASSAY DETAILS: Induction of cytotoxicity, SUDHL10 (Assay 6)
MEASUREMENT CONDITIONS: read-out: IC50 Cytotox SUDHL10 [M] (median), SUDHL10 cells, 5 h, CellTiter-Glo
PARAMETER: IC50 (M)
Report the figure in M without appending any unit label.

Quick check: IC50 of Cc1c2c(nn1C)CNCCCCn1c(C(=O)O)c(CCCOc3cccc4ccccc34)c3ccc(F)c-2c31 (single isomer, unassigned; enantiomer 1) [Example 48] ?
1.9e-06

Quick check: IC50 of CCc1c2c(nn1C)COCCCCn1c(C(=O)O)c(CCCOc3cccc4ccccc34)c3ccc(F)c-2c31 (single isomer, unassigned; enantiomer 1) [Example 7] ?
1.3e-06

Quick check: IC50 of CCc1c2c(nn1C)COCCCCn1c(C(=O)O)c(CCCOc3cccc4cc(F)ccc34)c3ccc(F)c-2c31 (single isomer, unassigned; enantiomer 1) [Example 24] ?
6.8e-07
